test-summary: chemical genetic growth profiling, strain panel (AID 1159580);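 note: tested at 20 µM; growth read once vehicle control cultures reached saturation at 30 °C; 1 = growth at the plate median or of vehicle wells; lower values mean less growth of the strain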
condition-details: S. cerevisiae deletion strains, growth OD, locus YJL164C, strain tpk1, hits give low values
In all, about 5,500 compounds went through this assay and about 2,000 (36%) were called active. Inconclusive results (about 18%) are left out. Some of the results follow.
property: normalized growth

C/C=C/CC(C)C(O)C1C(=O)NC(CC)C(=O)N(C)CC(=O)N(C)C(CC(C)C)C(=O)NC(C(C)C)C(=O)N(C)C(CC(C)C)C(=O)NC(C)C(=O)NC(C)C(=O)N(C)C(CC(C)C)C(=O)N(C)C(CC(C)C)C(=O)N(C)C(C(C)C)C(=O)N1C (stereo not drawn) ... 1.04
Oc1ccc2c3c1OC1[C@@H](O)CC[C@@]4(O)[C@@H](C2)N(CC2CCC2)CC[C@]314 (stereo partly drawn) ... 1.01
CC[C@@]1(O)C(=O)OCc2c1cc1n(c2=O)Cc2cc3cc(O)ccc3nc2-1 ... 1.01
